- Method: AUC (0-6h) in rat at 10 mg/kg, po
- Assay type: ADME, organism-based, Plasma
- Parameters: time < 6 hr, dose 10 mg/kg, route oral
- Condition notes: plasma
Readout type: AUC(0-t) at 6 h (ng·h/mL)

Example entries begin here.
Problem: For the compound shown here, CN1CCN(CCCN(C(=O)Nc2ccc(F)c(Cl)c2)[C@@H]2CC[C@]3(c4ccc(F)c(F)c4)C[C@H]23)CC1 (relative stereo) , give the reported AUC(0-t) at 6 h.
Solution: 1610

Problem: So what's the measured AUC(0-t) at 6 h for this one? N#Cc1cccc([C@]23CC[C@@H](N(CCCCN4CCCCC4)C(=O)Nc4ccc(F)c(C(F)(F)F)c4)[C@H]2C3)c1 (relative stereo)
Solution: 1160

[P] N#Cc1cccc([C@]23CC[C@@H](N(CCN4CCCC4)C(=O)Nc4ccc(F)c(Cl)c4)[C@H]2C3)c1 (relative stereo)
[Q] COc1ccc([C@]23CC[C@@H](N(CCCN4CCN(C)CC4)C(=O)Nc4ccc(F)c(C(F)(F)F)c4)[C@H]2C3)cc1 (relative stereo)
[R] N#Cc1cccc([C@@]23CC[C@H](N(CCN4CCCC4)C(=O)Nc4cc(Cl)cc(Cl)c4)[C@@H]2C3)c1
[S] CN1CCN(CCCN(C(=O)Nc2ccc(F)c(C(F)(F)F)c2)[C@@H]2CC[C@]3(c4ccc(F)c(C#N)c4)C[C@H]23)CC1 (relative stereo)
Problem: List by increasing AUC(0-t) at 6 h. Output spec: labels arranged per the requested ranking.
Solution: Q, P, R, S
